Exercise: for every item that follows, state its recorded koff.
molecular target: human recombinant integrin αvβ5 (αv extracellular domain-acidic leucine zipper-His×6 with β5 extracellular domain-basic leucine zipper) (human) (UniProt P06756); assay: BLI (Octet), antibody captured on anti-human IgG Fc (AHC) biosensor, integrin αvβ5 3.1-100 nM as analyte, divalent cations
Sequence (P06756 other isoform, or with tags, fused parts or gaps, chain 1 of 2): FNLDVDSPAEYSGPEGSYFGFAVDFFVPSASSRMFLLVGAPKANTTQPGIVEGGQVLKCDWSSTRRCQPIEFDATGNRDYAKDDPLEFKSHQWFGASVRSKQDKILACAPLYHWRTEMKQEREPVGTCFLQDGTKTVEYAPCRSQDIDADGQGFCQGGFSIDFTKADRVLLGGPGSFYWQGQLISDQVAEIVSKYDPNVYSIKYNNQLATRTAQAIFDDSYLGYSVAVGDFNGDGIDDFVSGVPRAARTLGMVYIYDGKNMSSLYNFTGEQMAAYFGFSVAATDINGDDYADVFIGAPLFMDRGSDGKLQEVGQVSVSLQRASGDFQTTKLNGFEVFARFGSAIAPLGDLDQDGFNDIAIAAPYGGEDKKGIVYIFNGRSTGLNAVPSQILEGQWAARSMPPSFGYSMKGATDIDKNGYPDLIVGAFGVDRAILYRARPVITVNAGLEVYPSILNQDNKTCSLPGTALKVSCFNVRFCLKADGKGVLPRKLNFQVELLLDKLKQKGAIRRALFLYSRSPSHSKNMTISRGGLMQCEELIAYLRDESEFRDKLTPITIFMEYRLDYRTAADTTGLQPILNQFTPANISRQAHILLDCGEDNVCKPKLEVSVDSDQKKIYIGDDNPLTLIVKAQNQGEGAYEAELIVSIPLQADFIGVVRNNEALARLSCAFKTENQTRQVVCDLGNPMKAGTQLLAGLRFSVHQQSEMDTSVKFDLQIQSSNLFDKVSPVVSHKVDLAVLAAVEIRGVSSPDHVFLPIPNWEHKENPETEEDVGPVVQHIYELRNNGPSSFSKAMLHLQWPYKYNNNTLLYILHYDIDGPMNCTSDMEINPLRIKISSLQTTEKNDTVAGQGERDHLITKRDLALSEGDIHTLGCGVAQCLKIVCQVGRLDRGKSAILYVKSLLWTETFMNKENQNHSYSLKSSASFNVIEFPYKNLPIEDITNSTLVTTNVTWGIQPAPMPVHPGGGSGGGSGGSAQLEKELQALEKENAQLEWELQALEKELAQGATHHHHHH
Sequence (chain, as listed by the source, chain 2 of 2): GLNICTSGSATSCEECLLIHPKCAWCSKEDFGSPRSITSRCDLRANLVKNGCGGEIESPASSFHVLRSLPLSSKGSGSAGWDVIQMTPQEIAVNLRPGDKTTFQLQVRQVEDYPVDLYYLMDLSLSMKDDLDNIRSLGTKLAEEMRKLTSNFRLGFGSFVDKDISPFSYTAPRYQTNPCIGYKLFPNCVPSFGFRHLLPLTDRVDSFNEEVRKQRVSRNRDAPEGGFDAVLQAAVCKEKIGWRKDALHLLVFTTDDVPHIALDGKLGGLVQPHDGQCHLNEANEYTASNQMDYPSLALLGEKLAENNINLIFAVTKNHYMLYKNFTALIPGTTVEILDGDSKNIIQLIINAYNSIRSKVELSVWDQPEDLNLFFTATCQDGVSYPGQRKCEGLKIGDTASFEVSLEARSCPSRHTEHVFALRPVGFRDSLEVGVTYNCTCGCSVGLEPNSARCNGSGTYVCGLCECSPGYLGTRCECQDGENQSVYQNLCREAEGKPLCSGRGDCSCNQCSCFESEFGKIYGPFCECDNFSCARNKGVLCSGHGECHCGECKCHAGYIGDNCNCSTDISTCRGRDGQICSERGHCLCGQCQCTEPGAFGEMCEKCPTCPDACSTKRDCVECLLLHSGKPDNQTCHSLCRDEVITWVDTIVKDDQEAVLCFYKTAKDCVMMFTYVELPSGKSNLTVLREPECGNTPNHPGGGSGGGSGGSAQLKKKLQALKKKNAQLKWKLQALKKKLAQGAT

Consider the binder 5#4-Ras03 (antibody, part only; not given: RT22 heavy chain, constant regions, V domains shown, not shown: another chain or arm of the molecule; a dimerising Fc or GST; large carriers; small tags and cut ends, chain 1: disulfide bond Cys6-Cys17 closes the 5#4 cyclic peptide) VL: EHATNCTTRGDTFVVLCGLGMGSSSNDIQMTQSPSSLSASVGDRVTITCKSSQSLLNSRDGKNYLAWYQQKPGKAPKLLIYWASTRESGVPSRFSGSGSGTDFTLTISSLQPEDFATYFCQQYWYWMYTFGQGTKVEIK . State its measured koff.
0.000158 s⁻¹

Report koff for 5#2-Ras03 (antibody, part only; not given: RT22 heavy chain, constant regions, V domains shown, not shown: another chain or arm of the molecule; a dimerising Fc or GST; large carriers; small tags and cut ends, chain 1: disulfide bond Cys6-Cys14 closes the 5#2 cyclic peptide) VL: ASYNDCQSRGDTFCVADMGSSSNDIQMTQSPSSLSASVGDRVTITCKSSQSLLNSRDGKNYLAWYQQKPGKAPKLLIYWASTRESGVPSRFSGSGSGTDFTLTISSLQPEDFATYFCQQYWYWMYTFGQGTKVEIK
0.00012 s⁻¹

Answer with the recorded koff of 5#1-Ras03 (antibody, part only; not given: RT22 heavy chain, constant regions, V domains shown, not shown: another chain or arm of the molecule; a dimerising Fc or GST; large carriers; small tags and cut ends, chain 1: disulfide bond Cys6-Cys15 closes the 5#1 cyclic peptide) VL: LPSGACVVRGDTFQCVSVGMGSSSNDIQMTQSPSSLSASVGDRVTITCKSSQSLLNSRDGKNYLAWYQQKPGKAPKLLIYWASTRESGVPSRFSGSGSGTDFTLTISSLQPEDFATYFCQQYWYWMYTFGQGTKVEIK only.
6.39e-05 s⁻¹
